// data source = paper PMC6792352

# Test system: GH3-TRE-Luc cell line
# condition-description: read-out: AC50 (uM) modified / 1000; Tox21_110001=Tox21_303036; viability, 1 nM T3 present, 24 h
readout-label: CC50 (µM)
The answer is to be given in µM; state only the numeric part.

CC50 recorded for this compound, "CC(C)N(C(=O)CCl)c1ccccc1" , is 54.1

###

# method-summary: in vitro
# condition-description: rat, gh3-tre-luc cells, AC50 (uM) modified / 1000
Where a name gives a salt, the structure may show the parent alone.
Listing: CC50 at 24 h of selected molecules

INSERT INTO measurements (molecule, readout_label, test_result) VALUES
  ('NC(=O)OCC(O)COc1ccc(Cl)cc1 (stereo not shown) [Chlorphenesin carbamate]', 'CC50 at 24 h', '> 20 µM'),
  ('O=C(O)CCNC(=O)c1ccc(/N=N/c2ccc(O)c(C(=O)O)c2)cc1 [Balsalazide]', 'CC50 at 24 h', '> 50 µM'),
  ('C[C@@H]1CCC[C@H](C)N1NC(=O)c1ccc(Cl)c(S(N)(=O)=O)c1 [Clopamide]', 'CC50 at 24 h', '> 20 µM');

CC50 at 24 h recorded for this molecule, "O=C(O)c1ccc(OCCn2ccnc2)cc1" , is > 50 µM

CC50 at 24 h recorded for this molecule, CC1=C(/C=C/C(C)=C/C=C/C(C)=C/C(=O)O)C(C)(C)CCC1 [all trans-Retinoic acid] , is 71.8 µM

CC50 at 24 h recorded for this molecule, CCOC(=O)COc1ccc2c(C)c(CCN(CC)CC)c(=O)oc2c1Cl [Cloricromen hydrochloride] , is 31.2 µM

CC50 at 24 h recorded for this molecule, CC(=O)OCC(=O)[C@@]1(O)[C@H](OC(C)=O)C[C@H]2[C@@H]3CCC4=CC(=O)C=C[C@]4(C)[C@@]3(F)[C@@H](O)C[C@@]21C [Triamcinolone diacetate] , is > 50 µM

CC50 at 24 h recorded for this molecule, CCC1C(C)=NN=C(c2ccc(OC)c(OC)c2)c2cc(OC)c(OC)cc21 (stereo not shown) , is > 50 µM

CC50 at 24 h recorded for this molecule, CC(C[N+](C)(C)C)OC(N)=O (stereo not shown) , is > 50 µM

CC50 at 24 h recorded for this molecule, "Cc1c(N)cccc1[N+](=O)[O-]" , is > 90 µM
